Parameter: IC50. Scope: all listed entries.
- Tested on: P-Akt (S473)
- PROTOCOL: Cell based AlphaLISA assay, inhibition of P-Akt (S473) in MDA-MB-468 cells (mTORC2 substrate)
- CONDITIONS USED: Homo sapiens, 4 h, AlphaLisa, two to four hours at 37° C., read-out: pIC50 for Inhibition of mTORC1 and mTORC2 Substrate Phosphorylation p-AKT1/2/3-(S473) (converted)

Req: GET /values?readout=IC50&item= CO[C@H]1C[C@@H]2CC[C@@H](C)[C@@](O)(O2)C(=O)C(=O)N2CCCC[C@H]2C(=O)O[C@H]([C@H](C)C[C@@H]2CC[C@@H](OC(=O)NCc3cnc(N4CCN(C(=O)CCOCCN5CCN(C(=O)CCC(=O)NCCCCn6nc(-c7cnc8[nH]ccc8c7)c7c(N)ncnc76)CC5)CC4)nc3)[C@H](OC)C2)CC(=O)[C@H](C)/C=C(\C)[C@@H](O)[C@@H](OC)C(=O)[C@H](C)C[C@H](C)/C=C/C=C/C=C/1C [Example 116]
Resp: > 1 µM

Req: Any idea what IC50 was measured for CO[C@H]1C[C@@H]2CC[C@@H](C)[C@@](O)(O2)C(=O)C(=O)N2CCCC[C@H]2C(=O)O[C@H]([C@H](C)C[C@@H]2CC[C@@H](OC(=O)NCc3cnc(N4CCN(C(=O)CCOCCN5CCN(c6ncc(C(=O)N7CCc8cc(Cn9nc(-c%10ccc%11oc(N)nc%11c%10)c%10c(N)ncnc%109)ccc8C7)cn6)CC5)CC4)nc3)[C@H](OC)C2)C[C@@H](O)[C@H](C)/C=C(\C)[C@@H](O)[C@@H](OC)C(=O)[C@H](C)C[C@H](C)/C=C/C=C/C=C/1C [Example 113] ?
Resp: 0.00316 to 0.0316 µM

Req: Tell me the measured IC50 of CO[C@H]1C[C@@H]2CC[C@@H](C)[C@@](O)(O2)C(=O)C(=O)N2CCCC[C@H]2C(=O)O[C@H]([C@H](C)C[C@@H]2CC[C@@H](OC(=O)NCc3cnc(N4CCN(c5ncc(C(=O)NCCOCCC(=O)N6CCN(c7ncc(C(=O)NCCCCn8nc(-c9ccc%10oc(N)nc%10c9)c9c(N)ncnc98)cn7)CC6)cn5)CC4)nc3)[C@H](OC)C2)CC(=O)[C@H](C)/C=C(\C)[C@@H](O)[C@@H](OC)C(=O)[C@H](C)C[C@H](C)/C=C/C=C/C=C/1C [Example 111] , please.
Resp: > 1 µM
